The measurements presented in this section are drawn from patent US20250270209A1.

target: LRRK2 wild type enzyme (Homo sapiens, UniProt Q5S007)
Sequence (Q5S007 whole entry): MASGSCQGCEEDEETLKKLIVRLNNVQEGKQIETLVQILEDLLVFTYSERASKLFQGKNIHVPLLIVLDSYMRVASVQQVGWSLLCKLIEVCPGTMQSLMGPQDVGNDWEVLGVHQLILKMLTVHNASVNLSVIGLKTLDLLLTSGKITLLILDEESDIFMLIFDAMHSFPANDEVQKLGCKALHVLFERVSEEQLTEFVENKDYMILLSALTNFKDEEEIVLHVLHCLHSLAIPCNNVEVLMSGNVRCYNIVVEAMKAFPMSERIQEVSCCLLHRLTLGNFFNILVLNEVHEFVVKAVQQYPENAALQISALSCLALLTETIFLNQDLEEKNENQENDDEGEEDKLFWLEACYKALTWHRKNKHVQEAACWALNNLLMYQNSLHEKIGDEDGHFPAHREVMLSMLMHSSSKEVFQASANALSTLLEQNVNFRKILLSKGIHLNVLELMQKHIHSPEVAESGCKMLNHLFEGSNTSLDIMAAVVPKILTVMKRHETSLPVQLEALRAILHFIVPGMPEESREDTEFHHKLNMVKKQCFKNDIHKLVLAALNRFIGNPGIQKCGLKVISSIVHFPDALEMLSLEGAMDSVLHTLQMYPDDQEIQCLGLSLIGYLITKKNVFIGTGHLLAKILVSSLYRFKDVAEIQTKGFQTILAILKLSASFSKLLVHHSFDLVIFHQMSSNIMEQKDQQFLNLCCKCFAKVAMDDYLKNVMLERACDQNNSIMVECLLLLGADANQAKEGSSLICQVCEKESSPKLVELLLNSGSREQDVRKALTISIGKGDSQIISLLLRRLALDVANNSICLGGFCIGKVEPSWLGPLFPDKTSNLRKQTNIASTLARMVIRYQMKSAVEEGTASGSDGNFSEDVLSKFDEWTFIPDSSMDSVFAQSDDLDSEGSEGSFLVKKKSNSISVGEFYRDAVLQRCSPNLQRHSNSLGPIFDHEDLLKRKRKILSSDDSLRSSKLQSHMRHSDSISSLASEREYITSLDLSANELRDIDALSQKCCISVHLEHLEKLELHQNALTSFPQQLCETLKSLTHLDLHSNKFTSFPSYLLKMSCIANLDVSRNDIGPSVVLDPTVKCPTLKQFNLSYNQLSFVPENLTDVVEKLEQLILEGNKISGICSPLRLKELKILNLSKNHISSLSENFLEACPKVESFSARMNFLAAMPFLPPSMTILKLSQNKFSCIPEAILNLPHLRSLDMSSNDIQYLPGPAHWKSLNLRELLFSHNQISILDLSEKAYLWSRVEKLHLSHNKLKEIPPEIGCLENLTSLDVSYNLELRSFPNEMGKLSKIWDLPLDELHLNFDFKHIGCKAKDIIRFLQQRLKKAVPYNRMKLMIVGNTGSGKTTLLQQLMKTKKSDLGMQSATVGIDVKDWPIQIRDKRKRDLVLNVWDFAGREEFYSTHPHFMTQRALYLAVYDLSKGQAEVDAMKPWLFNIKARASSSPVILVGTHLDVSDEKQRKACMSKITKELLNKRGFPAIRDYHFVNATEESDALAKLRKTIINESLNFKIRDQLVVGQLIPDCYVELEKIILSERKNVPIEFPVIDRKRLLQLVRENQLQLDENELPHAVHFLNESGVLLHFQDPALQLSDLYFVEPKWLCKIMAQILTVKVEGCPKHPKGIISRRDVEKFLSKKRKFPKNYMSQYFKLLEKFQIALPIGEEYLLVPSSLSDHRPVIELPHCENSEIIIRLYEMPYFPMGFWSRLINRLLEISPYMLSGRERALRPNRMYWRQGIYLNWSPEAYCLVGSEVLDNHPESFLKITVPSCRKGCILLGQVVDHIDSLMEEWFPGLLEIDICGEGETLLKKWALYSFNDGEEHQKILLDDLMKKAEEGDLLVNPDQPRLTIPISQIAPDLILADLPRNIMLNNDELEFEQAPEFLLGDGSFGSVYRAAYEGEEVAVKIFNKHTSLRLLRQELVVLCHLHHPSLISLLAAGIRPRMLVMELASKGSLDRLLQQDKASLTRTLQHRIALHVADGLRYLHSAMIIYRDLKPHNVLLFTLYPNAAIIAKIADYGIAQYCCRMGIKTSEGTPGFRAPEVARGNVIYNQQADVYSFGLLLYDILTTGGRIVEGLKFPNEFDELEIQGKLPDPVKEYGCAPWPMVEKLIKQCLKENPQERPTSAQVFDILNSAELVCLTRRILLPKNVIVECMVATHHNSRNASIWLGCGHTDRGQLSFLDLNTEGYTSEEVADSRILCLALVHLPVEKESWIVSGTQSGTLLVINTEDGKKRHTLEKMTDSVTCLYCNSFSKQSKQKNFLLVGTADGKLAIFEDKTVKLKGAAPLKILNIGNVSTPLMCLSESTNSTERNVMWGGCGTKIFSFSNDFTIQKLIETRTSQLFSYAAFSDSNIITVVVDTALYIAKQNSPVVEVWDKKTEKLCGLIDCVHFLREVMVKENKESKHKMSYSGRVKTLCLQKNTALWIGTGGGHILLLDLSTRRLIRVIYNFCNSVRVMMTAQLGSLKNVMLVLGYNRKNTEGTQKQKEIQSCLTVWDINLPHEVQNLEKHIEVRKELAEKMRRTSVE
pIC50: −log10 of the molar value.
Record class 1 whenever pIC50 is at 9 or higher; record class 0 when lower.

Structure as smiles: CC(C)Oc1ccc(NC(=O)Cc2nc3cnc4ccc(C#N)cc4c3n2[C@@H]2CCO[C@H](C)C2)cn1
Class name: class 1
--
Structure as smiles: C[C@@H]1C[C@H](n2c(CC(=O)Nc3cccnn3)nc3cnc4ccc(C#N)cc4c32)CCO1
Class name: class 1
--
Structure as smiles: COc1cc(F)c(NC(=O)Cc2nc3cnc4ccc(C#N)cc4c3n2[C@@H]2CCO[C@H](C)C2)cn1
Class name: class 1
--
Structure as smiles: CC(=O)NCc1nc2cnc3ccc(C#N)cc3c2n1[C@@H]1CCO[C@H](C)C1
Class name: class 0
--
Structure as smiles: C[C@@H]1C[C@H](n2c(CC(=O)Nc3cncn(C)c3=O)nc3cnc4ccc(C#N)cc4c32)CCO1
Class name: class 1
